system: Streptomyces; experiment: Growth inhibition in Streptomyces 85E assessed as clear zone of inhibition at 20 ug/disk by hyphae formation inhibition assay; format: functional; conditions: read-out: IZ
REPORTED ENDPOINT: zone of inhibition at 20 µg/disc (mm)
I only need the number, in mm, no unit after it.

[[record]]
molecule = "CO[C@@H]1[C@@H](OC(N)=O)[C@@H](O)[C@H](Oc2ccc3c(O)c(NC(=O)c4ccc5c(c4)CCC(C)(C)O5)c(=O)oc3c2C)OC1(C)C [COUMABIOCIN C]"
recorded_number = 15


Given CO[C@@H]1[C@@H](OC(N)=O)[C@@H](O)[C@H](Oc2ccc3c(O)c(NC(=O)c4ccc5c(c4)CC(C(C)C)O5)c(=O)oc3c2C)OC1(C)C (stereo partly specified) [COMABIOCIN B] , state its recorded zone of inhibition at 20 µg/disc.
14

Same read-out for CO[C@@H]1[C@@H](OC(N)=O)[C@@H](O)[C@H](Oc2ccc3c(O)c(NC(=O)c4ccc5c(c4)CC(C(C)(C)O)O5)c(=O)oc3c2C)OC1(C)C (stereo partly specified) [COUMABIOCIN A] ?
13
